system: Crude diglycosidase; experiment: Examination of pH in the conversion into isoflavone aglycons by diglycosidase using soybean materials; format: biochemical, Penicillium multicolor IAM7153; design: concentration or dose not given beside the values; settings: pH6.6; heat treatment of enzyme: no; reaction time 6 h
MEASURED ENDPOINT: Decomposition efficiency of daidzin family in defatted soybean (%)
// note: answer is a bare numeric in %

O=c1c(-c2ccc(O)cc2)coc2cc(O)ccc12 [daidzein]	58.2

The value of Decomposition efficiency of daidzin family in defatted soybean measured for the compound O=C(O)CC(=O)OC[C@H]1O[C@@H](Oc2ccc3c(=O)c(-c4ccc(O)cc4)coc3c2)[C@H](O)[C@@H](O)[C@@H]1O [malonyldaidzin, 6″-O-malonyldaidzin] turned out to be 41.8

====

The entries below come with measured Decomposition efficiency of glycitin family in concentrated soybean protein values attached.
tested on: Crude diglycosidase; assay: Examination of pH in the conversion into isoflavone aglycons by diglycosidase using soybean materials; format: biochemical, Penicillium multicolor IAM7153; settings: pH8.6; heat treatment of enzyme: no; reaction time 1 h
Reply with the number, then its unit.

COc1cc2c(=O)c(-c3ccc(O)cc3)coc2cc1O[C@@H]1O[C@H](CO)[C@@H](O)[C@H](O)[C@H]1O [glycitin]	51.6%

The value of Decomposition efficiency of glycitin family in concentrated soybean protein measured for the molecule COc1cc2c(=O)c(-c3ccc(O)cc3)coc2cc1O[C@@H]1O[C@H](COC(C)=O)[C@@H](O)[C@H](O)[C@H]1O [acetylglycitin, 6″-O-acetylglycitin] turned out to be 32.6%

The value of Decomposition efficiency of glycitin family in concentrated soybean protein measured for the molecule COc1cc2c(=O)c(-c3ccc(O)cc3)coc2cc1O [glycitein] turned out to be 15.4%

The value of Decomposition efficiency of glycitin family in concentrated soybean protein measured for the molecule COc1cc2c(=O)c(-c3ccc(O)cc3)coc2cc1O[C@@H]1O[C@H](COC(=O)CC(=O)O)[C@@H](O)[C@H](O)[C@H]1O [malonylglycitin, 6″-O-malonylglycitin] turned out to be 0.4%

====

tested on: β-Glucosidase derived from almond; test: Reactivity toward various isoflavone glycosides (HPLC); assay type: biochemical; parameters: unit not given here; conditions: Reaction time 0 h; 55 °C, pH 4.0
MEASURED ENDPOINT: aglycon
// return a plain number; no unit text

Illustrative cases are given below, each with its answer.
O=c1c(-c2ccc(O)cc2)coc2cc(O[C@@H]3O[C@H](CO)[C@@H](O)[C@H](O)[C@H]3O)ccc12	0.9
O=c1c(-c2ccc(O)cc2)coc2cc(O[C@@H]3O[C@H](CO)[C@@H](O)[C@H](O)[C@H]3O)cc(O)c12	0
CC(=O)OC[C@H]1O[C@@H](Oc2cc(O)c3c(=O)c(-c4ccc(O)cc4)coc3c2)[C@H](O)[C@@H](O)[C@@H]1O	0
COc1cc2c(=O)c(-c3ccc(O)cc3)coc2cc1O[C@@H]1O[C@H](CO)[C@@H](O)[C@H](O)[C@H]1O	0
CC(=O)OC[C@H]1O[C@@H](Oc2ccc3c(=O)c(-c4ccc(O)cc4)coc3c2)[C@H](O)[C@@H](O)[C@@H]1O	0.2

The value of aglycon measured for the molecule O=C(O)CC(=O)OC[C@H]1O[C@@H](Oc2cc(O)c3c(=O)c(-c4ccc(O)cc4)coc3c2)[C@H](O)[C@@H](O)[C@@H]1O turned out to be 0
